Can you tell me selectivity ratio for the items I'm about to list?
Assay: Selectivity index, ratio of IC50 for cytotoxicity against rat L6 cells to IC50 for antitrypanosomal activity against Trypanosoma cruzi Tulahuen strain C2C4 amastigotes infected in rat L6 cells

Record summary for CC1(COCc2ccc(OCc3ccccc3)cc2)Cn2cc([N+](=O)[O-])nc2S1(=O)=O (stereo unspecified) : reported selectivity ratio = > 1200

Record summary for O=[N+]([O-])c1cn2c(n1)OC[C@@H](OCc1ccc(-c3ccc(C(F)(F)F)cc3Cl)cc1)C2 : reported selectivity ratio = 9.2

Record summary for O=[N+]([O-])c1cn2c(n1)OC(COc1ccc(-c3ccc(OC(F)(F)F)cc3)cn1)CC2 (stereo unspecified) : reported selectivity ratio = > 2500

Record summary for CC1(COc2ccc(OC(F)(F)F)cc2)CCn2cc([N+](=O)[O-])nc2S1 (stereo unspecified) : reported selectivity ratio = > 91

Record summary for O=[N+]([O-])c1cn2c(n1)OC(COc1ccc(-c3ccc(F)nc3)cc1)CC2 (stereo unspecified) : reported selectivity ratio = > 5560

Record summary for CC1(COc2ccc(OC(F)(F)F)cc2)CCn2cc([N+](=O)[O-])nc2S1(=O)=O (stereo unspecified) : reported selectivity ratio = > 143

Record summary for CC1(COc2ccc(OC(F)(F)F)cc2)CCn2cc([N+](=O)[O-])nc2[S+]1[O-] (stereo unspecified) : reported selectivity ratio = 46

Record summary for O=[N+]([O-])c1nc2n(n1)C[C@H](O)CO2 : reported selectivity ratio = > 63

Record summary for O=[N+]([O-])c1cn2c(n1)OC[C@@H](OCC#Cc1ccc(-c3ccc(C(F)(F)F)cc3)cn1)C2 : reported selectivity ratio = > 435

Record summary for O=[N+]([O-])c1cn2c(n1)OCC(COc1ccc(-c3ccc(F)cc3)cn1)C2 (stereo unspecified) : reported selectivity ratio = > 4540

Record summary for O=[N+]([O-])c1cn2c(n1)OC[C@H](OCc1ccc(-c3ccc(OC(F)(F)F)cc3Cl)cc1)C2 : reported selectivity ratio = 104

Record summary for O=[N+]([O-])c1cn2c(n1)[S+]([O-])CC(OCc1ccc(COc3ccccc3)cc1)C2 (stereo unspecified) : reported selectivity ratio = > 2860

Record summary for O=[N+]([O-])c1cn2c(n1)OC(COc1ncc(-c3ccc(OC(F)(F)F)cc3)cn1)CC2 (stereo unspecified) : reported selectivity ratio = 358

Record summary for O=[N+]([O-])c1cn2c(n1)OC[C@H](OCc1ccc(-c3ccc(C(F)(F)F)cc3Cl)cn1)C2 : reported selectivity ratio = 75

Record summary for O=[N+]([O-])c1cn2c(n1)OC[C@H](Oc1ccc(OC(F)(F)F)cc1)C2 : reported selectivity ratio = > 250

Record summary for O=[N+]([O-])c1cn2c(n1)OC[C@@H](OCc1ccc(-c3ccc(C(F)(F)F)cc3Cl)cn1)C2 : reported selectivity ratio = 12
